Biological target: human histone deacetylases (HDAC) 6 (Homo sapiens, UniProt Q9UBN7)
Sequence (Q9UBN7 whole entry): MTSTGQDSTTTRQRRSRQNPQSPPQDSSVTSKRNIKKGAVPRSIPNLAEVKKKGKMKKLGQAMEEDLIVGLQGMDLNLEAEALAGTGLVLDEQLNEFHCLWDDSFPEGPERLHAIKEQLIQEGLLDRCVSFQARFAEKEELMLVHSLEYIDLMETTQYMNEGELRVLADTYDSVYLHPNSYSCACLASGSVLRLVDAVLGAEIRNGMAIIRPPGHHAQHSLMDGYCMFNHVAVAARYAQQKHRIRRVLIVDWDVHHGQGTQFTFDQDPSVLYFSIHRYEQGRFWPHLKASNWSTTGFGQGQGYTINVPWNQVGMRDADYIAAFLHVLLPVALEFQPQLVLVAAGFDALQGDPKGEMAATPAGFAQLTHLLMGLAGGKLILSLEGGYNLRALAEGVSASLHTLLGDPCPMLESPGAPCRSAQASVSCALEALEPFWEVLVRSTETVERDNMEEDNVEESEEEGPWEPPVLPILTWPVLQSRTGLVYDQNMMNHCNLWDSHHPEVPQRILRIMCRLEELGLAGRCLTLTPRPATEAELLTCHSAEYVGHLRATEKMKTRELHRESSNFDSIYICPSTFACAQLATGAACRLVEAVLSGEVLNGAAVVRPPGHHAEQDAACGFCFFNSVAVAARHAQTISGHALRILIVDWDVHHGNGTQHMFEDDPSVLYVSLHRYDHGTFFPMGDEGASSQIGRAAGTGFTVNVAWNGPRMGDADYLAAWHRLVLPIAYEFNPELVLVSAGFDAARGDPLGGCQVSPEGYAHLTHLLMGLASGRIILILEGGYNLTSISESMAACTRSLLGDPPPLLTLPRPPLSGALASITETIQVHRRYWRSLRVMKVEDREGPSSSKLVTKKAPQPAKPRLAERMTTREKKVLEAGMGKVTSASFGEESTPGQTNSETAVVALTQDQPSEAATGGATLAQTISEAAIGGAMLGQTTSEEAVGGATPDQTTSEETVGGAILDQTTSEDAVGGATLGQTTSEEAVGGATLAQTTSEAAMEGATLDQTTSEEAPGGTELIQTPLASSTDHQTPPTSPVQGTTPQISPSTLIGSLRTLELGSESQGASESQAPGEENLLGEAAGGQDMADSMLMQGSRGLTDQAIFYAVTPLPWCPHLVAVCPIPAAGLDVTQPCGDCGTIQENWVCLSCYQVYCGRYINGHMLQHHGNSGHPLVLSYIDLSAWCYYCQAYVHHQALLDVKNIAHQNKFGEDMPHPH
Assay: HDAC enzymatic assay, HDAC6
Assay type: biochemical
pIC50: −log10 of the molar value.
measuredParameter: pIC50

[in] Param readout = pIC50; param system = human histone deacetylases (HDAC) 6 (Homo sapiens, UniProt Q9UBN7); param query = Cc1nc2cc(/C=C/C(=O)NO)ccc2c(=O)n1-c1ccccc1 ; response: value
[out] > 7.00

[in] Given the entry CCc1nc2c(Cc3ccc(C(=O)NO)cc3)cccc2c(=O)n1CCc1ccccc1 , what pIC50 was observed with human histone deacetylases (HDAC) 6 (Homo sapiens, UniProt Q9UBN7)?
[out] 6.00 to 7.00
